# log10(TGI) per record follows
Test system: NCI-H226 lung
Experiment: NCI tumour cell line growth inhibition, 48 h
ASSAY ENDPOINT: log10(TGI) (log10 of the value in µM)

{"COMPOUND": "COc1ccc(Oc2nc(Nc3ccc(N4CCOCC4)cc3)ncc2NC(=O)Nc2cc(OC)cc(OC)c2)cc1", "log10(TGI)": 1.07}
{"COMPOUND": "Nc1cccc(/C=C/CN2CCN(CCOC(c3ccccc3)c3ccccc3)CC2)c1", "log10(TGI)": 1.61}
{"COMPOUND": "CCOC(=O)c1c(C(F)(F)F)n([O-])c2ccc(Cl)cc2[n+]1=O", "log10(TGI)": 0.76}
{"COMPOUND": "O=C1c2cccc3cccc(c23)C(=O)N1CC#Cc1ccc2c3c(cccc13)C(=O)N(CCN1CCNCC1)C2=O", "log10(TGI)": 1.72}
{"COMPOUND": "CCOC(=O)C1=C(C)NC(C)=C(C(=O)OCC)C1c1cc(Br)c(O)c(OC)c1", "log10(TGI)": 1.09}
{"COMPOUND": "c1csc(-c2cscc2-c2cccs2)c1", "log10(TGI)": 1.82}
{"COMPOUND": "C/C(=C\\CCc1ccsc1)CC/C=C(\\C)CCCN1CCN(CCO)CC1", "log10(TGI)": 1.39}
{"COMPOUND": "c1ccc(-c2sc(-c3ccccc3)c3c2C2CCC3C2)cc1", "log10(TGI)": 1.92}
{"COMPOUND": "N#Cc1ccc(N2Cc3cc(Cl)ccc3OC3=C2C(=O)N(Cc2ccc(F)cc2)C3=O)cc1", "log10(TGI)": 0.57}
{"COMPOUND": "O=C(NCCSSCCNC(=O)/C(Cc1ccc(O)c(Br)c1)=N/O)/C(Cc1ccc(O)c(Br)c1)=N/O", "log10(TGI)": 1.62}
{"COMPOUND": "[O-]/N=N\\c1on[n+](CCc2ccccc2)c1Cc1c(/N=N/[O-])on[n+]1CCc1ccccc1", "log10(TGI)": 1.99}
{"COMPOUND": "Cc1cc(NS(=O)(=O)c2ccc(NC(=O)COc3ccc(-c4cc5ccccc5[nH]4)cc3)cc2)no1", "log10(TGI)": 0.99}
{"COMPOUND": "O=C1C=CC(=O)c2c1cc1ccccc1c2O", "log10(TGI)": 1.58}
{"COMPOUND": "O=C1CC(NCCCNC2CC(=O)c3c(Br)sc(Br)c32)c2c(Br)sc(Br)c21 (stereo not drawn)", "log10(TGI)": 1.10}
{"COMPOUND": "O=c1c(-c2ccc3c(c2)OCO3)coc2c(CO)c(O)ccc12", "log10(TGI)": 0.65}
{"COMPOUND": "CS(=O)/C(C#N)=C\\C=C\\c1cccc(Cl)c1 (stereo not drawn)", "log10(TGI)": 1.31}
{"COMPOUND": "COC(=O)c1c2c(c(C)[n+]([O-])c1C)C(=O)C=C(NCc1ccc(Br)cc1)C2=O", "log10(TGI)": 0.47}
{"COMPOUND": "Cc1ccc2nc3sc(=O)sc3nc2c1", "log10(TGI)": 1.45}
{"COMPOUND": "COc1ccc(/C=C/c2ccnc3ccccc23)cc1", "log10(TGI)": 1.58}

###

# TGI per record follows
Tested on: K-562 leukemia
Assay: NCI tumour cell line growth inhibition, 48 h
ASSAY ENDPOINT: TGI

{"COMPOUND": "CC1(C)CC(=O)C(CC2C(=O)c3ccccc3C2=O)C(=O)C1C(=O)C(=O)Nc1cccc2ccc(O)cc12 (stereo not drawn)", "ASSAY ENDPOINT": "TGI", "RESULT": "> 100 µM"}
{"COMPOUND": "CC(=O)n1cc(CC(C)O)c(=O)[nH]c1=O (stereo not drawn)", "ASSAY ENDPOINT": "TGI", "RESULT": "> 100 µM"}
{"COMPOUND": "N#Cc1c(N)nc2c(N=Nc3ccccc3)c(N)nn2c1Nc1ccccc1", "ASSAY ENDPOINT": "TGI", "RESULT": "> 100 µM"}
{"COMPOUND": "CCN1CCN(CC(=O)Nc2nc3ccc(NCc4ccc(C)cc4)cc3s2)CC1", "ASSAY ENDPOINT": "TGI", "RESULT": "2.09 µM"}
{"COMPOUND": "c1ccc2c(c1)ccc1nc3ccccn3c12", "ASSAY ENDPOINT": "TGI", "RESULT": "> 100 µM"}
{"COMPOUND": "O=C1NC(=O)/C(=C/c2ccc(S(=O)(=O)N/N=C/c3ccccc3)cc2)N1", "ASSAY ENDPOINT": "TGI", "RESULT": "> 100 µM"}
{"COMPOUND": "CC(=O)[C@H]1[C@@H](OCc2ccccc2)O[N+]([O-])=C(C)[C@@H]1c1ccccc1", "ASSAY ENDPOINT": "TGI", "RESULT": "38 µM"}
{"COMPOUND": "O=C(NCCSSCCNC(=O)/C(Cc1ccc(O)c(Br)c1)=N/O)/C(Cc1ccc(O)c(Br)c1)=N/O", "ASSAY ENDPOINT": "TGI", "RESULT": "> 50 µM"}
{"COMPOUND": "COC(=O)NN/C=C(\\C=Nc1ccccc1)[N+](=O)[O-]", "ASSAY ENDPOINT": "TGI", "RESULT": "> 100 µM"}
{"COMPOUND": "O=C(Nc1ccc(Cl)cc1Cl)c1cc2nc3ccccc3c(=O)n2c2ccccc12", "ASSAY ENDPOINT": "TGI", "RESULT": "> 10 µM"}
{"COMPOUND": "CCCC1=NC(C(F)(F)F)(C(F)(F)F)N=C(N2CCOCC2)O1", "ASSAY ENDPOINT": "TGI", "RESULT": "> 100 µM"}
{"COMPOUND": "NS(=O)(=O)c1ccc(N=Nc2ccc(O)c(O)c2)cc1", "ASSAY ENDPOINT": "TGI", "RESULT": "> 100 µM"}
{"COMPOUND": "Cc1ccc(N(C)S(=O)(=O)c2ccccc2)cc1", "ASSAY ENDPOINT": "TGI", "RESULT": "> 100 µM"}
{"COMPOUND": "O=C1/C(=C\\c2ccc([N+](=O)[O-])cc2)CS(=O)(=O)C/C1=C/c1ccc([N+](=O)[O-])cc1", "ASSAY ENDPOINT": "TGI", "RESULT": "> 100 µM"}
{"COMPOUND": "S=C1NCCN1C(=S)NC1CCCCC1", "ASSAY ENDPOINT": "TGI", "RESULT": "> 100 µM"}
{"COMPOUND": "CC(C)(C)OC(=O)N(CCCCNC(=O)c1ccccc1)CCCNC(=O)c1ccccc1", "ASSAY ENDPOINT": "TGI", "RESULT": "> 100 µM"}
{"COMPOUND": "N=C1/C(=C/c2ccccc2)C(=O)N=C2SC=NN12", "ASSAY ENDPOINT": "TGI", "RESULT": "> 100 µM"}
{"COMPOUND": "O=C(O)CN(CC(=O)O)c1ccccc1", "ASSAY ENDPOINT": "TGI", "RESULT": "> 100 µM"}
{"COMPOUND": "CC12OC3(C(O)C1O)C(C(=O)O[C@H]3CO[Si](C)(C)C(C)(C)C)C2S(=O)(=O)c1ccccc1 (stereo partly drawn)", "ASSAY ENDPOINT": "TGI", "RESULT": "> 100 µM"}
{"COMPOUND": "O=NN(CCCl)C(=O)Nc1ccc(Cl)c(Cl)c1", "ASSAY ENDPOINT": "TGI", "RESULT": "> 100 µM"}
{"COMPOUND": "Cc1ccn2c(-c3csc(Nc4cccc(O)c4)n3)c(C)nc2c1", "ASSAY ENDPOINT": "TGI", "RESULT": "> 38.2 µM"}
{"COMPOUND": "COc1ccc2c(c1)CC[C@@H]1C2CC[C@]2(C)C(=O)N(CCN3CCCCC3)C(=O)CC12 (stereo partly drawn)", "ASSAY ENDPOINT": "TGI", "RESULT": "> 100 µM"}
{"COMPOUND": "O=[N+]([O-])c1ccc(/C=N/n2c(CCc3n[nH]c(=S)n3/N=C/c3ccc([N+](=O)[O-])o3)n[nH]c2=S)o1", "ASSAY ENDPOINT": "TGI", "RESULT": "> 100 µM"}

###

# GI50 per record follows
System: MDA-MB-231 breast
Assay: NCI tumour cell line growth inhibition, 48 h
ASSAY ENDPOINT: GI50

{"COMPOUND": "COc1ccc(Oc2nc(Nc3ccc(N4CCOCC4)cc3)ncc2NC(=O)Nc2cc(OC)cc(OC)c2)cc1", "TESTED SYSTEM": "MDA-MB-231 breast", "ASSAY ENDPOINT": "GI50", "RESULT": "992 nM"}
{"COMPOUND": "CCCCCCCCCCCCNC(=O)[C@H]1CSC(c2cc(Br)cs2)N1 (stereo partly specified)", "TESTED SYSTEM": "MDA-MB-231 breast", "ASSAY ENDPOINT": "GI50", "RESULT": "830 nM"}
{"COMPOUND": "Cc1ccn2c(-c3csc(Nc4cccc(O)c4)n3)c(C)nc2c1", "TESTED SYSTEM": "MDA-MB-231 breast", "ASSAY ENDPOINT": "GI50", "RESULT": "751 nM"}
{"COMPOUND": "CCOC(=O)c1c(C(F)(F)F)n([O-])c2ccc(Cl)cc2[n+]1=O", "TESTED SYSTEM": "MDA-MB-231 breast", "ASSAY ENDPOINT": "GI50", "RESULT": "2010 nM"}
{"COMPOUND": "Cc1ccc(NC(C(=O)c2ccccc2)c2ccccc2)cc1 (stereo unspecified)", "TESTED SYSTEM": "MDA-MB-231 breast", "ASSAY ENDPOINT": "GI50", "RESULT": "13000 nM"}
{"COMPOUND": "CCc1ccc(Oc2nccc(-c3c(-c4ccc(F)cc4)ncn3C3CCNCC3)n2)cc1", "TESTED SYSTEM": "MDA-MB-231 breast", "ASSAY ENDPOINT": "GI50", "RESULT": "5160 nM"}
{"COMPOUND": "O=C1NC(=O)C(N2CCc3ccccc32)=C1c1ccc(Cl)cc1", "TESTED SYSTEM": "MDA-MB-231 breast", "ASSAY ENDPOINT": "GI50", "RESULT": "> 25000 nM"}
{"COMPOUND": "Nc1cccc2c1CN(C1CCC(=O)NC1=O)C2=O (stereo unspecified)", "TESTED SYSTEM": "MDA-MB-231 breast", "ASSAY ENDPOINT": "GI50", "RESULT": "> 100000 nM"}
{"COMPOUND": "Nc1ncnc2c1nc(N)n2C1OC(CO)C(O)C1O (stereo unspecified)", "TESTED SYSTEM": "MDA-MB-231 breast", "ASSAY ENDPOINT": "GI50", "RESULT": "518 nM"}
{"COMPOUND": "O=Cc1c[nH]c2ccc(-c3csc4ccccc34)cc12", "TESTED SYSTEM": "MDA-MB-231 breast", "ASSAY ENDPOINT": "GI50", "RESULT": "6280 nM"}
{"COMPOUND": "O=C(N/N=C/c1ccncc1)c1ccc(C(F)(F)F)nc1Nc1cccc(C(F)(F)F)c1", "TESTED SYSTEM": "MDA-MB-231 breast", "ASSAY ENDPOINT": "GI50", "RESULT": "1810 nM"}
